# Tested on: Danio rerio larvae (5 dpf)
# assay-summary: difference in activity during first hour vs DMSO (percentage points); higher = more activity than DMSO
# run-parameters: 10 µM; exposure time 6 h
Where a name gives a salt, the structure may show the parent alone.
Give difference in activity during first hour for every item shown.
Numbers only.

>>> value_reported("O=C(O[C@@H]1C[C@@H]2C[C@H]3C[C@H](C1)N2CC3=O)c1c[nH]c2ccccc12")
2.6
>>> value_reported("Clc1cccc(Cl)c1NC1=NCCN1 [Clonidine (hydrochloride)]")
-11.7
>>> value_reported("CC(C)(C(=O)O)c1ccc(C(O)CCCN2CCC(C(O)(c3ccccc3)c3ccccc3)CC2)cc1 (centres undefined) [Fexofenadine (hydrochloride)]")
11.3

INPUT: Need difference in activity during first hour of CC(C)Cc1ccc(C(C)C(=O)O)cc1 (racemic) [(±)-Ibuprofen] , thanks.
OUTPUT: -2.46

====

# Tested on: Danio rerio larvae (5 dpf)
# assay-summary: difference in combined optomotor response to red, green and blue moving lines vs DMSO (percentage points); higher = stronger optomotor response than DMSO
# run-parameters: 10 µM; exposure time 6 h
Counter-ions that a name gives are not always drawn.
parameter: difference
One number for each entry.

>>> value_reported("COc1ccc2[nH]c([S@@+]([O-])Cc3ncc(C)c(OC)c3C)nc2c1")
5.95

For each entry beneath this line, provide reported difference.
1. CN(CCOc1ccc(CC2SC(=O)NC2=O)cc1)c1ccccn1 (stereo unspecified)
2. CC1(C)O[C@@H]2C[C@H]3[C@@H]4CCC5=CC(=O)C=C[C@]5(C)[C@H]4[C@@H](O)C[C@]3(C)[C@]2(C(=O)CO)O1 [Desonide]
3. CCC[C@H](N[C@@H](C)C(=O)N1[C@H](C(=O)O)C[C@@H]2CCCC[C@@H]21)C(=O)OCC
4. CC1=C(C/C=C(\C)CCC[C@H](C)CCC[C@H](C)CCCC(C)C)C(=O)c2ccccc2C1=O
5. COc1ccc(-n2nc(C(N)=O)c3c2C(=O)N(c2ccc(N4CCCCC4=O)cc2)CC3)cc1
6. COc1cccc2c1C(=O)c1c(O)c3c(c(O)c1C2=O)C[C@@](O)(C(C)=O)C[C@@H]3O[C@H]1C[C@H](N)[C@H](O)[C@H](C)O1 [Daunorubicin (hydrochloride)]
7. CCCCNc1ccc(C(=O)OCCOCCOCCOCCOCCOCCOCCOCCOCCOC)cc1 [Benzonatate]

OUTPUT:
1. -6.71
2. 1.67
3. 1.2
4. 6.58
5. 10.4
6. -1.09
7. -0.0866

List reported difference for each of these compounds:
1. CCC(=O)NCC[C@@H]1CCc2ccc3c(c21)CCO3
2. CN(C)c1nc(N(C)C)nc(N(C)C)n1
3. Nc1cc(Cl)c(N=C2NCCN2)c(Cl)c1 [Apraclonidine (hydrochloride)]
4. CCOC(=O)C1=C(COCCN)NC(C)=C(C(=O)OC)C1c1ccccc1Cl (stereo unspecified)
5. COc1cc2/c(=N/c3ccc(Br)cc3F)nc[nH]c2cc1OCC1CCN(C)CC1
6. CCCc1nn(C)c2c(=O)[nH]c(-c3cc(S(=O)(=O)N4CCN(C)CC4)ccc3OCC)nc12 [Sildenafil Citrate]

OUTPUT:
1. 6.65
2. 0.893
3. -2.54
4. 7.23
5. 6.09
6. 5.26

Return reported difference values for all items listed beneath this line.
1. O=C1CC2(CCCC2)CC(=O)N1CCCCN1CCN(c2ncccn2)CC1 [Buspirone (hydrochloride)]
2. C#C[C@]1(O)CC[C@H]2[C@@H]3CCC4=CC(=O)CC[C@@H]4[C@H]3CC[C@@]21CC

OUTPUT:
1: 0.171; 2: 3.05

Need difference for each of these compounds.
1. O=C(NC1CCN(CCCCC2(C(=O)NCC(F)(F)F)c3ccccc3-c3ccccc32)CC1)c1ccccc1-c1ccc(C(F)(F)F)cc1 [Lomitapide]
2. COc1cccc2c1C(=O)c1c(O)c3c(c(O)c1C2=O)C[C@@](O)(C(=O)CO)C[C@@H]3O[C@H]1C[C@H](N)[C@@H](O)[C@H](C)O1 [Epirubicin (hydrochloride)]
3. Nc1nc(=O)n([C@@H]2CS[C@H](CO)O2)cc1F
4. Cc1c(-c2ccccc2)oc2c(C(=O)OCCN3CCCCC3)cccc2c1=O [Flavoxate (hydrochloride)]
5. CCOc1nc2cccc(C(=O)OCc3oc(=O)oc3C)c2n1Cc1ccc(-c2ccccc2-c2noc(=O)[nH]2)cc1
6. CCC(=O)O[C@]1(C(=O)CCl)[C@@H](C)C[C@H]2[C@@H]3C[C@H](F)C4=CC(=O)C=C[C@]4(C)[C@@]3(F)[C@@H](O)C[C@@]21C [Halobetasol Propionate]
7. CNNCc1ccc(C(=O)NC(C)C)cc1 [Procarbazine (hydrochloride)]

OUTPUT:
[-5.57, 1.76, 7.06, 8.27, -2.25, 3.99, 4.87]

Required: difference, one value per compound below.
1. CCc1ccc(CCOc2ccc(CC3SC(=O)NC3=O)cc2)nc1 (stereo unspecified) [Pioglitazone (hydrochloride)]
2. CCOCCn1c(N2CCCN(C)CC2)nc2ccccc21 [Emedastine (fumarate)]

OUTPUT:
1. 3.69
2. -3.97

Give me difference for each of these compounds, listed below.
1. C/C(O)=C(\C#N)C(=O)Nc1ccc(C(F)(F)F)cc1
2. CC(C)(CO)c1cc2cc(NC(=O)C3(c4ccc5c(c4)OC(F)(F)O5)CC3)c(F)cc2n1C[C@@H](O)CO
3. CN1CCC(=C2c3ccccc3C=Cc3ccccc32)CC1 [Cyproheptadine (hydrochloride hydrate)]
4. CN1CCC(=C2c3ccccc3CCn3c(C=O)cnc32)CC1
5. CCOc1nc2cccc(C(=O)OC(C)OC(=O)OC3CCCCC3)c2n1Cc1ccc(-c2ccccc2-c2nn[nH]n2)cc1 (stereo unspecified)
6. NCCCC(N)(C(=O)O)C(F)F (racemic) [DL-α-Difluoromethylornithine (hydrochloride hydrate)]

OUTPUT:
1: 3.09; 2: 6.53; 3: -16.4; 4: -2.52; 5: -2.76; 6: 2.05

====

# Test system: Danio rerio larvae (5 dpf)
# assay-summary: difference in habituation to acoustic stimuli vs DMSO (percentage points); higher = more habituation than DMSO
# run-parameters: 10 µM; exposure time 6 h
Where a name gives a salt, the structure may show the parent alone.
Definition: the class of an entry is the range in lo = under -3, mid = from -3 up to 0.5, hi = 0.5 and over that contains its difference in habituation to acoustic stimuli.

>>> assigned_class("NC[C@H]1CC[C@H](C(=O)O)CC1")
"hi"
>>> assigned_class("O=C(NCC1CCCCN1)c1cc(OCC(F)(F)F)ccc1OCC(F)(F)F (stereo unspecified) [Flecainide (acetate)]")
"lo"
>>> assigned_class("CC(C)c1nc(CN(C)C(=O)N[C@H](C(=O)N[C@@H](Cc2ccccc2)C[C@H](O)[C@H](Cc2ccccc2)NC(=O)OCc2cncs2)C(C)C)cs1")
"hi"

INPUT: Which class holds O=C(O)COCCN1CCN([C@H](c2ccccc2)c2ccc(Cl)cc2)CC1 [(R)-Cetirizine (hydrochloride)] ?
OUTPUT: hi

INPUT: Any idea which band CN(C)[C@@H]1C(O)=C(C(N)=O)C(=O)[C@@]2(O)C(O)=C3C(=O)c4c(O)ccc(Cl)c4[C@@H](O)[C@H]3C[C@@H]12 [Demeclocycline (hydrochloride)] is in?
OUTPUT: hi

INPUT: Any idea which band CN1CC2c3ccccc3Oc3ccc(Cl)cc3C2C1 (racemic) [(±)-Asenapine] is in?
OUTPUT: lo

INPUT: Consider NC(=O)N1c2ccccc2CC(=O)c2ccccc21 [Oxcarbazepine] . To which difference in habituation to acoustic stimuli class does it belong?
OUTPUT: hi

INPUT: Hi, small favor: classify `Cc1cn(-c2cc(NC(=O)c3ccc(C)c(Nc4nccc(-c5cccnc5)n4)c3)cc(C(F)(F)F)c2)cn1` by its difference in habituation to acoustic stimuli when you get a moment.
OUTPUT: mid

INPUT: Where would `CCCc1nc(C(C)(C)O)c(C(=O)OCc2oc(=O)oc2C)n1Cc1ccc(-c2ccccc2-c2nnn[nH]2)cc1` land among the classes by reported difference in habituation to acoustic stimuli?
OUTPUT: lo

INPUT: // return the class label for `O=C1CCCC(=O)C1C(=O)c1ccc(C(F)(F)F)cc1[N+](=O)[O-]`
OUTPUT: mid

INPUT: # classify by difference in habituation to acoustic stimuli band: CO[C@@]1(NC(=O)Cc2cccs2)C(=O)N2C(C(=O)O)=C(COC(N)=O)CS[C@@H]21 [Cefoxitin (sodium salt)]
OUTPUT: hi

INPUT: # bin label for CNCCC(Oc1ccc(C(F)(F)F)cc1)c1ccccc1 (stereo unspecified) [Fluoxetine (hydrochloride)]
OUTPUT: lo

INPUT: Pick a category. Item: OCCN1CCN(CCCN2c3ccccc3Sc3ccc(C(F)(F)F)cc32)CC1 [Fluphenazine (hydrochloride)]
OUTPUT: lo

INPUT: Lab note: which band did CCN(Cc1ccncc1)C(=O)C(CO)c1ccccc1 (stereo unspecified) [Tropicamide] land in?
OUTPUT: mid

INPUT: Entry `N#Cc1ccc(C(c2ccc(C#N)cc2)n2cncn2)cc1` belongs to which category?
OUTPUT: lo
